These measurements were taken from patent US11136409B2.

# Tested on: P31
# test: Anti-proliferation, 24 hr treatment (CellTiter-Glo)
# Assay type: cell-based, human
# reported conditions: 24 hr treatment; P31 (FLT3 wt or null); read-out: Anti-proliferation IC50
# Source text: Nomo-1, P31-FUJ, and NB4 were obtained from Dr. Gary Gilliland. MV4, 11 cells were obtained from Dr. Anthony Letai. Hel, K562, THP, U937, TF-1 and K052 cells were purchased from the American Type Culture Collection (ATCC) (Manassas, Va., USA). […]
pIC50: −log10 of the molar value.
measured parameter: pIC50

INSERT INTO measurements (sample_smiles, reported_measurement) VALUES
  ('CCCN(CCC)CCCNC(=O)c1ccc2c(Cl)c3c(nc2c1)CCCC3', 4.86),
  ('O=C(NCCCN1CCN(Cc2ccccc2)CC1)c1ccc2nc3c(c(Cl)c2c1)CCCC3', 4.97),
  ('CCN(CCCNC(=O)c1ccc2nc3c(c(Cl)c2c1)CCC3)Cc1ccccc1', 4.54),
  ('O=C(NCCN1CCN(Cc2ccccc2)CC1)c1ccc2nc3c(c(Cl)c2c1)CCCC3', 4.52);

* * *

Target or system USP10 (Homo sapiens, UniProt Q14694); recorded quantity IC50.
measured parameter: IC50

INSERT INTO assay_data (compound, reported_measurement) VALUES
  ('CN(CCCNC(=O)c1ccc2nc3c(c(Cl)c2c1)CCCC3)Cc1ccccc1 [HBX19818, reference compound]', '14 µM'),
  ('CC(=O)c1cc([N+](=O)[O-])c(Sc2ccc(F)cc2F)s1 [P22077]', '6 µM');
